Molecular target: UniProt Q13627
Assay: Inhibition of DYRK1A (unknown origin) using DYRKtide as substrate by ATP regenerative NADH consuming assay
Details: read-out: IC50
READOUT: IC50 (nM)

Record excerpt, results attached:
> print(dat)
                            chemical.smiles  readout  unit.string  reported.result
1  COc1cc(N2CCN(C)CC2)ccc1Nc1nc(N)c(C(=O)c2ccccc2)s1     IC50           nM              800
2  C=CC(=O)Nc1ccc(C(=O)c2sc(Nc3ccc(N4CCN(C)CC4)cc3OC)nc2N)cc1     IC50           nM             1200
3  O=c1ccc2cnc3ccc(-c4cn[nH]c4)cc3c2n1-c1ccc(F)cc1C(F)(F)F     IC50           nM              532

[P] CN1C(=O)[C@H]2CCC[C@H]2N(C2CCCC2)c2nc(Nc3ccc(C(N)=O)cc3)ncc21
[Q] Nc1cccc(-c2cnc3[nH]cc(-c4cccnc4)c3c2)c1
Please indicate which has the smaller reported IC50: P , or Q . Output the label that corresponds to your choice.
Q

###

Molecular target: Dual specificity tyrosine-phosphorylation-regulated kinase 1A (Homo sapiens)
Assay: Inhibition of DYRK1A (unknown origin) assessed as remaining enzyme activity at 20 uM using DYRKtide as substrate by ATP regenerative NADH consuming assay
READOUT: Activity (%)

Record excerpt, results attached:
> print(dat)
                            chemical.smiles  unit.string  reported.result
1  COc1ccc(N)cc1-c1cnc(N)c(C(=O)c2cccnc2)n1            %               24
2  O=c1ccc2cnc3ccc(-c4cn[nH]c4)cc3c2n1-c1ccc(F)cc1C(F)(F)F            %                2
3  NS(=O)(=O)c1ccc(-c2cnc3[nH]cc(-c4cccnc4)c3c2)cc1            %                0

[P] CN1C(=O)[C@H]2CCC[C@H]2N(C2CCCC2)c2nc(Nc3ccc(C(N)=O)cc3)ncc21
[Q] COc1cc(N2CCN(C)CC2)ccc1Nc1nc(N)c(C(=O)c2ccccc2)s1
[R] Nc1cccc(-c2cnc3[nH]cc(-c4cccnc4)c3c2)c1
Give the ascending ranking of the items by reported Activity. Your answer should be the labels, listed in the requested order.
R, Q, P

[I] O=C(NCCN1CCOCC1)Nc1cccc(-c2ccc3nc(NC(=O)C4CC4)sc3n2)c1
[II] C=CC(=O)Nc1ccc(C(=O)c2sc(Nc3ccc(N4CCN(C)CC4)cc3OC)nc2N)cc1
Of the two listed items, which has the higher Activity? First: I Second: II Output the label that corresponds to your choice.
I
(I: 11%, II: 4%)

###

// reported Activity for each item listed
Biological target: Dual specificity tyrosine-phosphorylation-regulated kinase 1A (Homo sapiens)
Experiment: Inhibition of human DYRK1A expressed in HEK293 cells assessed as compound concentration causing 1.5 fold […] by NFAT response element-driven luciferase reporter gene assay relative to basal level
Type: cell-based

Record excerpt, results attached:
> print(dat)
                            chemical.smiles   readout  reported.result
1  NS(=O)(=O)c1ccc(-c2cnc3[nH]cc(-c4cccnc4)c3c2)cc1  Activity        1 to 5 µM
2   Nc1cccc(-c2cnc3[nH]cc(-c4cccnc4)c3c2)c1  Activity       5 to 10 µM
3  O=c1ccc2cnc3ccc(-c4cn[nH]c4)cc3c2n1-c1ccc(F)cc1C(F)(F)F  Activity   0.05 to 0.1 µM
4  O=C(NCCN1CCOCC1)Nc1cccc(-c2ccc3nc(NC(=O)C4CC4)sc3n2)c1  Activity          > 20 µM
5  COc1ccc(N)cc1-c1cnc(N)c(C(=O)c2cccnc2)n1  Activity       5 to 10 µM
6  COc1cc(N2CCN(C)CC2)ccc1Nc1nc(N)c(C(=O)c2ccccc2)s1  Activity      10 to 20 µM

Now examine the next entry.
I am curious: what Activity value has been reported for `CN1C(=O)[C@H]2CCC[C@H]2N(C2CCCC2)c2nc(Nc3ccc(C(N)=O)cc3)ncc21` ?
0.5 to 1 µM
